Target: T1, PUF4 RNA-binding domain (Saccharomyces cerevisiae, UniProt P25339 537-888)
T1 sequence: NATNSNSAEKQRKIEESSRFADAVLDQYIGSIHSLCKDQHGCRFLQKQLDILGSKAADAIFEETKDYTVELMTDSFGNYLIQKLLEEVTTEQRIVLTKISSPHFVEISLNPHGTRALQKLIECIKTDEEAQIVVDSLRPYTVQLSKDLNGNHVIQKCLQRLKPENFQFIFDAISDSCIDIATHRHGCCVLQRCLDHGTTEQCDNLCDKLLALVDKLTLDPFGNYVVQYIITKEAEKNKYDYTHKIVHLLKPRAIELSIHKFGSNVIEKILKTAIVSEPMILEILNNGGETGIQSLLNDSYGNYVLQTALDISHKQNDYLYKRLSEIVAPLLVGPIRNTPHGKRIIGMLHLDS
Experiment: Mg; RNA-MaP; 20 mM Na-HEPES pH 7.4, 30 mM KOAc, 0.75 mM MgCl2, 0.1% Tween-20, 5% glycerol, 0.1 mg/mL BSA, 2 mM DTT; 25 C; 0.0125-409.6 nM protein
Conditions: tags: N-His6-TEV cleaved; C-SNAP kept, Cy3B-labelled; label: tethered on chip by stalled RNA polymerase
The following binders are listed with their measured Kd values.
Express it in µM; write the number only.

For orientation, consider the following solved cases.
{"BINDER": "Ic_S2_P4E.1_K4.1_C4.1_H4.1_A4.1_[T5C]_[A6T]_[T7C]_F4.1_[T8C]_T4.1 (ssRNA) RNA: UUUGAUUAAUAUGAUAUCGUUCUUUCUUGUACUCCAUUCUUUCUCGAUAUCAUAUUAAUCUUU", "Kd (µM)": 0.213}
{"BINDER": "Ie_S2_P4E.1_K4.1_C4.1_H4.1_A4.1_[+6CT]_F4.1_T4.1 (ssRNA) RNA: UUUGAUUAAUAUGAUAUCGUUCUUUCUUGUAUACUUUAUUCUUUCUCGAUAUCAUAUUAAUCUUU", "Kd (µM)": 0.00375}

Please examine the following record next.
What the record says about Id_ii_S4_P3E.2_K3.1_C3.2_[C-2T]_[T-1A]_H3.1_A3.1_F3.1_T3.2_[T9A]_[A10C] (ssRNA) RNA: UUUGACAACUGAUCGUUCUUUCUUAUGUAUAUAACUUCUUUCUCGAUCAGUUGUCUUU : Kd is 0.0159

Entry source: paper PMC9352680
